# ASSAY_TARGET: Human GPR40 (Homo sapiens (Human), UniProt O14842)
# Sequence (O14842 whole entry): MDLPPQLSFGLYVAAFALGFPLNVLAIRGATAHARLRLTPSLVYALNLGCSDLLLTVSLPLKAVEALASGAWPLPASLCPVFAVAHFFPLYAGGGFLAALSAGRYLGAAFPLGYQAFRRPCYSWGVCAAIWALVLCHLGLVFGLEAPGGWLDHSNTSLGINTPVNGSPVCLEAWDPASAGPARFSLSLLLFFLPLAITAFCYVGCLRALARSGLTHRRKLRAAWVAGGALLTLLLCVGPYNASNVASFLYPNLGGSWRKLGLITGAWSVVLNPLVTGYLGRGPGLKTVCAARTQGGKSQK
# TEST_PROTOCOL: Inositol Phosphate Turnover (IP1) Assay 1, HEK cells stably expressing human GPR40, 3H-inositol SPA
# Type: cell-based
# PARTICULARS: HEK cells stably expressing human GPR40, 96-well
PARAMETER_MEASURED: EC50 (nM)

Known results for compounds:
1) CCOc1cccc(OC2CC(COc3cccc([C@H](C4CC4)[C@H](C)C(=O)O)c3)C2)c1 (stereo partly shown) [Example 131]    119
2) COc1cccc(OC2CC(COc3cccc([C@H](C4CC4)[C@H](C)C(=O)O)c3)C2)c1 (stereo partly shown) [Example 64]    60
3) O=C(O)C[C@H](c1cccc(OCC2CN(Cc3cc(C(F)(F)F)ccc3C(F)(F)F)C2)c1)C1CC1 [Example 49]    251

(A) C[C@H](C(=O)O)[C@H](c1cccc(OCC2CCN([C@@H](C)c3cc(C(F)(F)F)ccc3C(F)(F)F)C2)c1)C1CC1 (stereo partly shown) [Example 41]
(B) C[C@H](C(=O)O)[C@H](c1cccc(OCC2CC(Oc3cccnc3)C2)c1)C1CC1 (stereo partly shown) [Example 110]
*Q* Between item A and item B , which reported EC50 is smaller? State your choice using its label.
*A* A

(A) COc1cc([C@@H]2C[C@H]2COc2cccc([C@H](C3CC3)[C@H](C)C(=O)O)c2)c(F)cn1 [Example 76]
(B) C[C@H](C(=O)O)[C@H](c1cccc(OCC2CC(NCc3cc(C(F)(F)F)ccc3C(F)(F)F)C2)c1)C1CC1 (stereo partly shown) [Example 14]
*Q* Param pair: A , B . Output: the one whose EC50 is numerically greater. Record your answer as the label of the chosen record.
*A* B

====

# ASSAY_TARGET: Human GPR40 (Homo sapiens (Human), UniProt O14842)
# TEST_PROTOCOL: Inositol Phosphate Turnover (IP1) Assay 1, HEK cells stably expressing human GPR40, 3H-inositol SPA
# Assay type: cell-based
# PARTICULARS: HEK cells stably expressing human GPR40, 96-well
PARAMETER_MEASURED: EC50 (nM)

Some entries whose results are on file:
1. COc1ccc([C@H]2C[C@@H]2COc2cccc([C@H](C3CC3)[C@H](C)C(=O)O)c2)cc1    472
2. C[C@H](C(=O)O)[C@H](c1cccc(OCC2CN(c3ncccc3C(F)(F)F)C2)c1)C1CC1    297

(a) C[C@H](C(=O)O)[C@H](c1cccc(OCC2CC(Oc3cccc(C(F)(F)F)c3)C2)c1)C1CC1 (stereo partly shown)
(b) COc1ccc(F)c(OC2CC(COc3cccc([C@H](C4CC4)[C@H](C)C(=O)O)c3)C2)c1 (stereo partly shown) [Example 73]
(c) COc1cccc(C[C@H]2C[C@@H]2COc2cccc([C@H](C3CC3)[C@H](C)C(=O)O)c2)c1
(d) COc1cc(C2CC(COc3cccc([C@H](C4CC4)[C@H](C)C(=O)O)c3)C2)c(F)cn1 (stereo partly shown)
(e) C[C@H](C(=O)O)[C@H](c1cccc(OCC2CN(c3cc(C(F)(F)F)ccc3C(F)(F)F)C2)c1)C1CC1
*Q* Number of molecules to sort: 5. Sort criterion: EC50, ascending. Give me the labels in the order the question wants.
*A* d, b, c, a, e
(d: 23 nM, b: 43 nM, c: 146 nM, a: 262 nM, e: 485 nM)
